Reported gcPBM binding intensity (ln) is given for each of the following sequences.
- Tested on: PfAP2-I AP2 domain 3 (GST-tagged)
- PROCEDURE SUMMARY: gcPBM binding intensity (ln(normalized median fluorescence intensity)); higher = stronger DNA binding
The full ranking holds about 25,000 sequences; the median of “ln(normalized median fluorescence intensity)” is about 7.9, and the highest 2% start at about 11. For the sample, the highest values were picked, then their nearest neighbours and some sequences at random.
QUANTITY NAME: gcPBM binding intensity (ln)

                              sequence_text  test_value
0      TTTTTTTTTTTTGTAGTGCAAATTAAAAATATATGT        10.6
1      ATGATATGCAATTTAGTGCATAACAAAATTGGTATA        10.9
2  AAATAAAAAGGGTGCACACAAAAATATATATATATA [CACACA_site1728]          11
3  TTTTTTAAATTGGTAGTGCAATATGATTGAACAAAA [GTGCAC_site9715]        10.9
4      AAAAATACAATTTTCTTGCACTTTGTTGCATTGTAA        9.79
5  TATATAGATATGATAGTGCATTTTTAGAAAACATAA [GTGCAC_site9962]        9.44
6      GTTTTAACAAAATTAGTGCATTTATCAATTATATAA        10.5
7  AATATACATAACAAGGTGCAAAAAATATTGTTCATA [GTGCAC_site9499]        10.4
8  AAAAATAAAGGGTGTGCACACAAAAATATATATATA [CACACA_site1727]         9.8
9      TGAGCACAAATACAGGTGCATATAAAATATATGACG        10.3
